System: SR leukemia
Method summary: NCI-60 one-dose screen, 48 h
Run conditions: 10 µM unless noted
About 83,000 compounds went through this panel and 20% of them were active in at least one assay; those are over-represented in the sample as a whole. The source made the active and inactive calls. The calls were made as follows: active = growth percent below 10; inactive = the rest.
One label from this list, please: active, inactive

Compound: C[C@]12C[C@H](O)[C@H]3[C@@H](CCC4=CC(=O)CC[C@@]43C)[C@@H]1CC[C@@H]2C(=O)CO
Study system: SR leukemia
Classification: inactive
--
Compound: COc1cc(/C=C2\CCC/C(=C\c3ccc(OCC4CO4)c(OC)c3)C2=O)ccc1OCC1CO1 (stereo not given)
Study system: SR leukemia
Classification: active
--
Compound: C/C(=N/N=C(N)N)c1ccc(Cl)cc1
Study system: SR leukemia
Classification: inactive
--
Compound: Cc1cc2c(C#N)n3c(c2cc1C)C(=O)C(c1ccccc1)Oc1ccccc1-3 (stereo not given)
Study system: SR leukemia
Classification: active
--
Compound: O=C(NN(C(=O)c1ccccc1)c1cccs1)c1ccccc1
Study system: SR leukemia
Classification: inactive
--
Compound: COc1cccc(-c2nnc(N)o2)c1
Study system: SR leukemia
Classification: inactive

-- ask // param item: O=C(/C=C/c1ccccc1)CC(c1ccccc1)N1CCOCC1 (stereo not given) ; yields the recorded call
-- reply active

-- ask Identify the outcome logged in this assay for the compound shown: O=C1CCCN1C1CCN(Cc2cc3ccccc3[nH]c2=O)c2ccccc21 (stereo not given)
-- reply inactive

-- ask For OC(CCC(O)(c1ccccc1)c1ccccc1)(c1ccccc1)c1ccccc1 , what call appears in the results of this test?
-- reply inactive

----------
Test system: HOP-62 NSCLC
Method summary: NCI-60 one-dose screen, 48 h (100 = growth as untreated, 0 = no growth, -100 = all killed)
Run conditions: 10 µM unless noted
The panel holds about 83,000 compounds, 20% with a hit somewhere; the sample as a whole holds those more often.
Here the recorded growth is given for each entry.
Output spec: scalar in %, unitless text.

Some entries whose results are on file:
Compound: S=C(Nc1ccc(C2=NCCN2)cc1)Nc1ccc(C2=NCCN2)cc1
Study system: HOP-62 NSCLC
growth [%]: 99.6
--
Compound: Nc1nc2ncc(CCNc3ccc(C(=O)NC(CCC(=O)O)C(=O)O)cc3)nc2c(=O)[nH]1 (stereo not drawn)
Study system: HOP-62 NSCLC
growth [%]: 90.6
--
Compound: COc1cc(Oc2cc(-c3cccnc3)ccc2NC(=O)Nc2ccc(F)cc2F)cc(OC)c1OC
Study system: HOP-62 NSCLC
growth [%]: 96.4
--
Compound: N#CCCCCCn1c2ccccc2c2c3c(c4c5ccccc5[nH]c4c21)C(=O)N(O)C3=O
Study system: HOP-62 NSCLC
growth [%]: 18.4
--
Compound: COc1cc2c(c(OC)c1OC)CCc1cnoc1-2
Study system: HOP-62 NSCLC
growth [%]: 156

-- ask Please state recorded growth (tested on HOP-62 NSCLC) of CN1C(=O)C(=Cc2cn(Cc3ccccc3)c3ccc(Br)cc23)C(=O)N(C)C1=O
-- reply 85.8

-- ask Lab note: need growth for OCCOc1c(Cl)cc(Cl)cc1Cl on HOP-62 NSCLC, anyone have it?
-- reply 108

-- ask Enter reported growth observed with HOP-62 NSCLC for Cc1cc(C(C)(C)c2cc(C)c(O)c(CN(C)C)c2)cc(CN(C)C)c1O
-- reply 99.8

Data provenance: PubChem BioAssay (NCI)
